Tested on: Streptococcus pneumoniae
Assay: Antimicrobial activity against penicillin-intermediate Streptococcus pneumoniae by broth dilution method
Type: functional
Details: Streptococcus pneumoniae
Reported metric: MIC50 (mg/L)

Compound	Assay result
CC(=O)NC[C@H]1CN(c2ccc(N3CCOCC3)c(F)c2)C(=O)O1 [LINEZOLID]	1
C[C@H]1COc2c(N3CCN(C)CC3)c(F)cc3c(=O)c(C(=O)O)cn1c23.C[C@H]1COc2c(N3CCN(C)CC3)c(F)cc3c(=O)c(C(=O)O)cn1c23.O [LEVOFLOXACIN]	1
Cn1nnc(-c2ccc(-c3ccc(N4C[C@H](CO)OC4=O)cc3F)cn2)n1 [TEDIZOLID]	0.25
CO/N=C(\C(=O)N[C@@H]1C(=O)N2C(C(=O)O)=C(COC(C)=O)CS[C@H]12)c1csc(N)n1 [CEFOTAXIME]	0.12
